These data points were gathered from PubChem BioAssay AID1852.

Reported inhibition is given for each of the following compounds.
Assay: TNF-a-driven NF-kB reporter inhibitors, primary screen, selectivity assay for NOD1/NOD2 signaling inhibitor project, cell-based, HEK293T NF-kB-Luc, luminescence (AID 1852)
Settings: TNF-a induced, 14 h, at 4 µM, stronger effect = higher value
The campaign covered roughly 2,500 compounds. About 1,100 (44%) were called active. So high a share suggests a set chosen from earlier hits. The list shows a part of the results.

>  <COMPOUND>
COc1ccc(CCNC(=O)c2cc(=O)c3cc(C)ccc3o2)cc1OC

>  <inhibition / %>
19.4

$$$$
>  <COMPOUND>
O=S(=O)(Nc1nc2ccccc2nc1N1CCN(c2ccccc2F)CC1)c1ccc(Cl)cc1

>  <inhibition / %>
86.2

$$$$
>  <COMPOUND>
CCOc1ccc2nc(SCc3ccc(CC(=O)O)cc3)c(C#N)cc2c1

>  <inhibition / %>
64.6

$$$$
>  <COMPOUND>
O=C(Nc1ccc(F)c([N+](=O)[O-])c1)c1cccs1

>  <inhibition / %>
4.2

$$$$
>  <COMPOUND>
COc1ccc(-c2cc(N)n(S(=O)(=O)c3c(F)c(F)c(F)c(F)c3F)n2)cc1OC

>  <inhibition / %>
83.8

$$$$
>  <COMPOUND>
Oc1cc2c(cc1C(c1ccc(Cl)c(Cl)c1)N1CCCC1)OCO2 (stereo not given)

>  <inhibition / %>
-22.5

$$$$
>  <COMPOUND>
CCOC(=O)c1sc(NC(=O)CSc2nc3c(cc2C#N)CCCCCC3)c(C#N)c1C

>  <inhibition / %>
52.1

$$$$
>  <COMPOUND>
O=S(=O)(Nc1nc2ccccc2nc1Cl)c1ccc(Br)cc1

>  <inhibition / %>
20.8

$$$$
>  <COMPOUND>
Cc1ccc(CNC(=O)[C@H](C)[C@H]2C[C@]2(C)[C@H](NC(=O)OCc2ccccc2)c2ccccc2)o1

>  <inhibition / %>
1.6

$$$$
>  <COMPOUND>
CC(C(=O)N1CCN(c2ccccc2F)CC1)c1ccc([N+](=O)[O-])cc1 (stereo not given)

>  <inhibition / %>
-32.5

$$$$

====

Test: TNF-a-driven NF-kB reporter inhibitors, primary screen, selectivity assay for NOD1/NOD2 signaling inhibitor project, cell-based, HEK293T NF-kB-Luc, luminescence (AID 1852)
Details: TNF-a induced, 14 h, at 4 µM, stronger effect = higher value
The campaign covered roughly 2,500 compounds. About 1,100 (44%) were called active. So high a share suggests a set chosen from earlier hits. The list shows a part of the results.
Binned inhibition; ranges: lo (below 30%), med (30% to below 50%), hi (50% or more)

>  <MOLECULE>
O=C(Nc1ccc(Cl)cc1)OCc1cncs1

>  <CLASS_NAME>
lo

$$$$
>  <MOLECULE>
CCCCN(c1ccccc1)c1ncnc(N)c1[N+](=O)[O-]

>  <CLASS_NAME>
hi

$$$$
>  <MOLECULE>
COc1ccc(CC2(CO)CCN(CC3=Cc4cc(Cl)ccc4OC3)CC2)cc1

>  <CLASS_NAME>
med

$$$$
>  <MOLECULE>
CCN1CCN(Cc2ccc(NC(=O)c3ccc(C)c(NC(=O)c4ccno4)c3)cc2C(F)(F)F)CC1

>  <CLASS_NAME>
lo

$$$$
>  <MOLECULE>
C#CC(C)(C)NC(=O)CSc1nc2c(c(=O)n(C)c(=O)n2C)n1CCCC

>  <CLASS_NAME>
lo

$$$$
>  <MOLECULE>
CC[n+]1c(/C=C2\Sc3ccccc3N2C)ccc2cccc(C)c21

>  <CLASS_NAME>
hi

$$$$
>  <MOLECULE>
CCc1ccc(C(=O)OCC(=O)c2c(N)n(CC(C)C)c(=O)n(C)c2=O)cc1

>  <CLASS_NAME>
lo

$$$$
>  <MOLECULE>
CC(=O)N1CC(C)Sc2ccc(S(=O)(=O)NCCc3ccc(C)cc3)cc21 (stereo not drawn)

>  <CLASS_NAME>
med

$$$$
>  <MOLECULE>
CC[C@@H](C)[C@H](NC(=O)OC(C)(C)C)c1nnc(S(=O)(=O)Cc2cc(C)ccc2C)o1

>  <CLASS_NAME>
med

$$$$
>  <MOLECULE>
c1csc(CCNc2ncnc3sc4c(c23)CCC4)c1

>  <CLASS_NAME>
hi

$$$$
>  <MOLECULE>
C/C(=N\NC(=O)c1ccc(-c2ccccc2)cc1)C1C(=O)c2ccccc2C1=O

>  <CLASS_NAME>
hi

$$$$
>  <MOLECULE>
COCCn1c(C)cc(C(=O)CSc2ncnc3sc4c(c23)CCC4)c1C

>  <CLASS_NAME>
lo

$$$$
>  <MOLECULE>
CCCCn1c(SCC(=O)Nc2nnc(C(C)C)s2)nc2c1c(=O)n(C)c(=O)n2C

>  <CLASS_NAME>
hi

$$$$
>  <MOLECULE>
O=C(O)c1cccc(-c2ccc(/C=N/n3cnc4sc5c(c4c3=O)CCCC5)o2)c1

>  <CLASS_NAME>
lo

$$$$
>  <MOLECULE>
CC(C)Cn1c(N)c(C(=O)CSc2ccc3c(c2)OCCO3)c(=O)n(C)c1=O

>  <CLASS_NAME>
hi

$$$$
>  <MOLECULE>
O=C(CN(Cc1ccc(Cl)cc1)C(=O)CNS(=O)(=O)c1ccc(F)cc1)NCC1CCCO1 (stereo not drawn)

>  <CLASS_NAME>
med

$$$$
>  <MOLECULE>
COc1c(F)c(F)c(C(=O)Nc2cccc(Cl)c2N2CCOCC2)c(F)c1F

>  <CLASS_NAME>
med

$$$$
>  <MOLECULE>
CCCCCCc1cc2cc(S(=O)(=O)c3ccc(F)c(Cl)c3)c(=O)oc2cc1O

>  <CLASS_NAME>
med

$$$$
>  <MOLECULE>
CC1CCc2c(sc(NC(=O)c3cccs3)c2C(=O)O)C1 (stereo not drawn)

>  <CLASS_NAME>
lo

$$$$
>  <MOLECULE>
CCCCN1/C(=C/c2ccc3ccccc3[n+]2CC)Sc2ccccc21

>  <CLASS_NAME>
med

$$$$
>  <MOLECULE>
COc1ccc(CCNC(=S)N2CCC(Cc3ccccc3)CC2)cc1OC

>  <CLASS_NAME>
med

$$$$
>  <MOLECULE>
C/C(=N\NC(=O)c1cccc(Br)c1)c1ccccn1

>  <CLASS_NAME>
hi

$$$$
>  <MOLECULE>
C/C(=N\NC(=O)Cc1ccc(Cl)cc1)c1ccccn1

>  <CLASS_NAME>
hi

$$$$
>  <MOLECULE>
CCCCn1c(SCC(=O)Nc2nnc(CC)s2)nc2c1c(=O)n(C)c(=O)n2C

>  <CLASS_NAME>
hi

$$$$
>  <MOLECULE>
C=CCn1c(SCC(=O)Nc2sccc2C(N)=O)nc2sc(CC)cc2c1=O

>  <CLASS_NAME>
med

$$$$
>  <MOLECULE>
c1ccc(N2CCN(c3ncnc4sc5c(c34)CCC5)CC2)cc1

>  <CLASS_NAME>
hi

$$$$
>  <MOLECULE>
CCCN(CCC)c1ncnc2nc[nH]c12

>  <CLASS_NAME>
hi

$$$$
>  <MOLECULE>
CC(=O)n1cc(N(C(=O)CCl)c2ccc(C)cc2)c2ccccc21

>  <CLASS_NAME>
hi

$$$$
>  <MOLECULE>
CCOC(=O)c1c(NC(=O)CSc2ncn[nH]2)sc(C)c1C

>  <CLASS_NAME>
med

$$$$
>  <MOLECULE>
CCOC(=O)CC1CCCCN1C(=O)c1cc(COc2cccc3cnccc23)on1 (stereo not drawn)

>  <CLASS_NAME>
hi

$$$$
>  <MOLECULE>
COc1ccc(/C=N/NS(=O)(=O)c2ccc(F)cc2)cc1COc1cc(F)ccc1[N+](=O)[O-]

>  <CLASS_NAME>
lo

$$$$
>  <MOLECULE>
Cc1ccc(NC(=O)Cc2ncc(C(F)(F)F)cc2Cl)cc1Cl

>  <CLASS_NAME>
lo

$$$$
>  <MOLECULE>
CCCCCCc1cc2cc(S(=O)(=O)c3ccc(Cl)cc3)c(=O)oc2cc1O

>  <CLASS_NAME>
hi

$$$$
>  <MOLECULE>
Cc1ccc(NC(=O)O/N=C/c2c(C)nn(C(C)(C)C)c2C)cc1Cl

>  <CLASS_NAME>
hi

$$$$
>  <MOLECULE>
COc1ccc(NC(=S)N2CCN(C/C=C/c3ccccc3)CC2)c(OC)c1

>  <CLASS_NAME>
hi

$$$$
>  <MOLECULE>
COc1ccc2nc(N3CCCCC3)c(/C=C3\SC(=S)NC3=O)cc2c1

>  <CLASS_NAME>
med

$$$$
>  <MOLECULE>
O=C(Nc1sc2c(c1C(=O)O)CCCC2)c1ccc(F)cc1

>  <CLASS_NAME>
lo

$$$$
>  <MOLECULE>
COc1ccc(NC(=O)COC(=O)/C=C/C(=O)OCC(=O)Nc2ccc(OC)c(Cl)c2)cc1Cl

>  <CLASS_NAME>
lo

$$$$
>  <MOLECULE>
CCCc1nc(SCC(=O)Nc2nnc(SCC)s2)c2c(=O)n(C)c(=O)n(C)c2n1

>  <CLASS_NAME>
med

$$$$
